B1: library; numbered along this chain (parent)
chain: MAAAGGARLLRAASAVLGGPAGRWLHHAGSRAGSSGLLRNRGPGGSAEASRSLSVSARARSSSEDKITVHFINRDGETLTTKGKVGDSLLDVVVENNLDIDGFGACEGTLACSTCHLIFEDHIYEKLDAITDEENDMLDLAYGLTDRSRLGCQICLTKSMDNMTVRVPETVADARQSIDVGKTS

- Variants of: B1
- procedure-text: scaled log2 fold change in cell abundance, elesclomol vs control (0 = silent mean, 1 = nonsense mean) (scaled log2 ratio); higher = higher viability under elesclomol (loss of FDX1 cuproptosis function);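 further: variant abundance is its share of total variant reads in each endpoint sample, from next-generation sequencing of the integrated ORF PCR-amplified out of genomic DNA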
- assay-context: with ABC1 FDX1 KO; elesclomol 5 nM; glucose 10 mM; 14 days
Quick reference for scaled log2 fold change among some variants
The answer should be written as a number, with no unit following it.

// known answers, use as guide
# variant-name, scaled log2 fold change
rows = [
    ("G102R", 0.164),
    ("I118E", -0.0205),
    ("L127A", 0.297),
    ("S113W", 0.446),
]

Quick note, scaled log2 fold change for `V92M` landed at -0.0956

Quick note, scaled log2 fold change for `R41P` landed at -0.0791

Quick note, scaled log2 fold change for `D136P` landed at 0.922

Quick note, scaled log2 fold change for `A59L` landed at -0.434

Quick note, scaled log2 fold change for `T78W` landed at -0.127

Quick note, scaled log2 fold change for `C106P` landed at 1.07
